EXPERIMENT_SUMMARY: ATG_EGR_CIS: Attagene CIS-FACTORIAL HepG2 Assay for human Early Growth Response 1 (EGR1) (AID 2282938)
SETUP_CONDITIONS: HepG2 Attagene CIS-FACTORIAL EGR reporter mRNA; actives raise or lower the signal
Calls of active or inactive are those of the source. Rule for the calls: active = hit-call score of the fitted dose curve at least 0.9, where 1 is the maximum; inactive = score below 0.9.
Outcome codes: active, inactive

compound=COc1ccc(CCC(C)=O)cc1 class=inactive
compound=C=Cc1ccncc1 class=active
compound=CCCSc1ccc2nc(NC(=O)OC)[nH]c2c1 class=inactive
compound="CCC1(C)NC(=O)NC1=O (stereo not drawn)" class=inactive
compound=COc1cccc(OC)c1O class=inactive
compound=OCC#CCO class=inactive
compound=C=Cc1ccc(C)cc1 class=inactive
compound=CC1=CC[C@@]23C[C@@H]1C(C)(C)[C@@H]2CC[C@H]3C class=inactive

###

EXPERIMENT_SUMMARY: ATG_GAL4_TRANS: Attagene TRANS-FACTORIAL HepG2 Assay for GAL4 (Internal Marker) (AID 2282976)
SETUP_CONDITIONS: HepG2 Attagene TRANS GAL4 internal marker reporter
Records with an inconclusive call do not appear. Calls of active or inactive are those of the source. The calls were made as follows: active = hit-call score of the fitted dose curve at least 0.9, where 1 is the maximum; inconclusive = response in the unintended direction; inactive = score below 0.9.
EXPERIMENTAL_ENDPOINT: outcome

compound=C=CCCCCCCCCCC value_observed=inactive
compound="CC(Oc1cc(Cl)ccc1Cl)C(=O)O (stereo not given)" value_observed=inactive
compound="CCCCC(CC)COC(C)=O (stereo not given)" value_observed=inactive
compound=CCC(=O)O[C@@H]1C[C@H]2CC[C@]1(C)C2(C)C value_observed=inactive
compound=COc1ccc(CCC(C)=O)cc1 value_observed=inactive
compound="CC1CC(O)CC(C)(C)C1 (stereo not given)" value_observed=inactive
compound="OCCCCC(O)CO (stereo not given)" value_observed=inactive
compound=Cc1ccc(S(=O)(=O)Oc2ccc(N=Nc3ccc(-c4ccc(N=Nc5c(O)ccc6cc(S(=O)(=O)O)cc(S(=O)(=O)O)c56)c(C)c4)cc3C)cc2)cc1 value_observed=inactive
compound=CC1(C)COCN1 value_observed=inactive
compound=CC(=O)CC(=O)Nc1ccc(C)cc1C value_observed=inactive
compound=O=C(CS)OCCOC(=O)CS value_observed=inactive
compound=CCN(CCC#N)c1ccc(N=Nc2ccc([N+](=O)[O-])cc2)cc1 value_observed=inactive
compound=CC1=C(Br)C(=O)C(Br)=C/C1=C(/c1ccccc1S(=O)(=O)O)c1cc(Br)c(O)c(Br)c1C value_observed=inactive
compound="CCCC(C)C(O)CC (stereo not given)" value_observed=inactive
compound=COC(C)(C)CC(C)=O value_observed=inactive
compound=C=COCCOCCOC=C value_observed=inactive
compound="CCCCCCCCCCCCCC(=O)OCC(O)CO (stereo not given)" value_observed=inactive
compound=C[Si]1(C)O[Si](C)(C)O[Si](C)(C)O1 value_observed=inactive
compound="C=CC(C)(O)CCC=C(C)C (stereo not given)" value_observed=inactive
compound=CC(C)(N=C=O)c1cccc(C(C)(C)N=C=O)c1 value_observed=inactive
compound="CC(C)CC(C)CC(O)CC(C)C (stereo not given)" value_observed=inactive
compound=CS(=O)(=O)c1ccc(C2=C(c3ccccc3)C(=O)OC2)cc1 value_observed=inactive
compound=C=CCN(CC=C)CC=C value_observed=inactive
compound=Cc1cc(CCC(=O)OCCOCCOCCOC(=O)CCc2cc(C)c(O)c(C(C)(C)C)c2)cc(C(C)(C)C)c1O value_observed=inactive
compound=CC=CC=CCOC(=O)C(C)C value_observed=inactive
compound=C=Cc1ccc(C(C)(C)C)cc1 value_observed=inactive
compound="OCC(O)c1ccccc1 (stereo not given)" value_observed=inactive
compound="CCOC(=O)CC(C)O (stereo not given)" value_observed=inactive
compound=CCCCCCCCCCCC(=O)OC[C@@H](O)[C@H]1OC[C@H](O)[C@H]1O value_observed=inactive
compound=CCOC(=O)CN value_observed=inactive
